Test system: arachidonic acid-stimulated platelet aggregation
method: Arachidonic acid-stimulated platelet aggregation in concentrated human platelet-rich plasma (aggregometer)
Type: cell-based
test parameters: Platelet; aggregation factor arachidonic acid; human concentrated PRP; —: no effect; read-out: IC50 antiplatelet aggregation activity, AA
assay metric: IC50

Problem: Form field - read-out: IC50; system: arachidonic acid-stimulated platelet aggregation; submitted item: COc1cc(-c2oc3cc(OC)c(CCCO)cc3c2C=O)ccc1O
Solution: > 1 mM

* * *

Test system: collagen-stimulated platelet aggregation
method: Collagen-stimulated platelet aggregation in concentrated human platelet-rich plasma (aggregometer)
Type: cell-based
test parameters: Platelet; aggregation factor collagen 10 μg/ml; human concentrated PRP, 37° C.; read-out: IC50 antiplatelet aggregation activity, Collagen
# IC50 per entry
Provide only the numeric value, understood in µM.

item smiles | IC50 [µM]
CC(=O)Oc1ccccc1C(=O)O | 203

Moving on to another molecule below.
Problem: Hi! What's the reported IC50 for COc1cc(-c2oc3cc(OC)c(CCCO)cc3c2C=O)ccc1O on collagen-stimulated platelet aggregation?
Solution: 680
